- Tested on: L-Wnt cells (murine Wnt-3a) / Leading Light Wnt Reporter Cells (luciferase under control of Wnt pathway response elements)
- assay_name: Dual-Cell β-Catenin Reporter Assay
- Format: cell-based, Mouse
- condition_details: category of IC50; luciferase signal reduced to 50% of DMSO control
pIC50: −log10 of the molar value.
recorded_endpoint: pIC50

Some solved cases for reference:
molecule	pIC50
Cc1cc(-c2nc(C)n(CC(=O)Nc3ccc(-c4cnccn4)cn3)c2C)ccn1	> 8.30
Cc1nn(CC(=O)Nc2ccc(C3=CCS(=O)(=O)CC3)cn2)c(C)c1-c1ccnc(C(F)(F)F)c1	7.00 to 8.30
Cc1nn(CC(=O)Nc2ccc(-c3cnccn3)cn2)c(C)c1-c1ccnc(F)c1	> 8.30
O=C(Cn1cc(-c2ccncn2)cn1)Nc1ccc(-c2cnccn2)cn1	< 7.00
Cc1cc(-c2cnn(CC(=O)Nc3ccc(-c4cnccn4)cn3)c2)ncn1	< 7.00

Query: What pIC50 value was documented for this molecule, O=C(Cn1cc(C2=CCOCC2)c(C(F)(F)F)n1)Nc1ccc(-c2cnccn2)cn1 ?
Response: > 8.30

Query: Same for Cc1nn(CC(=O)Nc2ccc(-c3ncccn3)cn2)c(C)c1C1=CC(C)OC(C)C1 (centres unmarked)
Response: 7.00 to 8.30

Query: Same for Cc1nn(CC(=O)Nc2ccc(-c3ccncc3)cn2)c(C)c1-c1ccnc(C(F)(F)F)c1
Response: 7.00 to 8.30
